System: Acinetobacter baumannii ATCC 17978
assayName: Antimicrobial susceptibility testing: 90% growth inhibitory concentration (IC90) determination
Format: cell-based
experimentalConditions: Acinetobacter baumannii, ATCC17978, 16 h, 90% growth inhibitory concentration; Acinetobacter baumannii ATCC17978; Iso-Sensitest broth, OD 600 nm over 16h; read-out: ATCC17978 IC90
Where a name gives a salt, the structure may show the parent alone.
Property: IC90; scope: individual molecules
Return type: number; implicit unit nM.

[
  {
    "molecule": "CCc1cc(Nc2nccn3c(-c4ccc(OC)c(F)c4F)cnc23)ccc1C(=O)NCCCn1ccnc1 [Example 290]",
    "valueUnit": "nM",
    "IC90": 50
  },
  {
    "molecule": "COc1ccc(-c2cnc3c(Nc4ccc(C(=O)NCCCCCN)c(C)c4)nccn23)c(F)c1F [Example 491, hydrochloride]",
    "valueUnit": "nM",
    "IC90": 41
  },
  {
    "molecule": "COc1ccc(-c2cnc3c(Nc4ccc(C(=O)N(CCN5CCNCC5)CC(F)(F)F)c(C)c4)nccn23)cc1F [Example 172]",
    "valueUnit": "nM",
    "IC90": 6200
  },
  {
    "molecule": "CCc1cc(Nc2nccn3c(-c4ccc(OC)cc4F)cnc23)ccc1C(=O)NCCCN [Example 280]",
    "valueUnit": "nM",
    "IC90": 880
  },
  {
    "molecule": "CCc1cc(Nc2nccn3c(-c4ccc(OC)c(F)c4F)cnc23)ccc1C(=O)N[C@H](C)C(=O)NCCNC [Example 566]",
    "valueUnit": "nM",
    "IC90": 950
  },
  {
    "molecule": "Cc1cc(Nc2nccn3c(-c4ccc(Cl)cc4)cnc23)ccc1C(=O)NCCC1CCN(C)CC1 [Example 186]",
    "valueUnit": "nM",
    "IC90": 260
  },
  {
    "molecule": "COc1ccc(-c2cnc3c(Nc4ccc(C(=O)NCCCN(C)C)cc4)nccn23)cc1Cl [Example 263]",
    "valueUnit": "nM",
    "IC90": 5000
  },
  {
    "molecule": "CCc1cc(Nc2nccn3c(-c4ccc(OCC#N)c(F)c4F)cnc23)ccc1C(=O)NCCNC(=O)CCCN [Example 141, formate]",
    "valueUnit": "nM",
    "IC90": 70
  }
]

## Input Field request: IC90 | item: COc1ccc(-c2cnc3c(Nc4ccc(C(=O)NCC5CCNC5)c(C)c4)nccn23)c(F)c1F (stereo not drawn) [Example 57]
## Output 290

## Input Another molecule to look at: CCc1cc(Nc2nccn3c(-c4ccc(OC)c(F)c4F)cnc23)ccc1C(=O)NC[C@@H]1CCNC1 [Example 529, hydrochloride]
## Output 110

## Input Another molecule to look at: CCc1cc(Nc2nccn3c(-c4ccc(OC)c(F)c4F)cnc23)ccc1C(=O)NC(C)CNC(C)=N (stereo not drawn) [Example 169]
## Output 70

## Input Another molecule to look at: CCc1cc(Nc2nccn3c(-c4ccc(OC(F)F)c(F)c4F)cnc23)ccc1C(=O)NCCCO[C@H]1O[C@H](CO)[C@@H](O)[C@H](O)[C@H]1O [Example 328]
## Output 300

## Input Another molecule to look at: CCc1cc(Nc2nccn3c(-c4ccc(OC)c(F)c4F)cnc23)ccc1C(=O)NCC1CCN(Cc2cccnc2)CC1 [Example 554]
## Output 170

## Input Another molecule to look at: Cc1cc(Nc2nccn3c(-c4ccc(OC(F)F)cc4)cnc23)ccc1C(=O)N(C)CCN(C)C [Example 50]
## Output 4300

## Input Another molecule to look at: CCc1cc(Nc2nccn3c(-c4ccc(OC)c(F)c4F)cnc23)ccc1C(=O)NC(C)(C)CNC(=O)[C@@H](N)CCCCN [Example 326]
## Output 190
